Measured values drawn from the supplement of paper PMC9233669 for this set.

# Test system: biotinyl-Leu-oxazolone
# PROTOCOL SUMMARY: self-aminoacylation, catalytic enhancement (BLO) (fold over background); higher = more active; k-Seq, kA / k0A0; sequences stand for … in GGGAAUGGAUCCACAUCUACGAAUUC…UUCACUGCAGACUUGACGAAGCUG
Fewer inactive variants are shown than the library holds.
Overview of reported self-aminoacylation across a group of sequences:
READOUT TYPE: self-aminoacylation

> print(dat)
                               item.sequence       target.under.test         readout.type  readout.number
 1  AUUCGCCUAGGUCGUCGGGUG [Fam2.2 aminoacylation ribozyme variant]  biotinyl-Leu-oxazolone  self-aminoacylation            2.18
 2  AUUACCAUGGUCAGCGAGUGA [Fam2.1 aminoacylation ribozyme variant]  biotinyl-Leu-oxazolone  self-aminoacylation            6.19
 3  UUUACCCUGUUCAUCGAGUGA [Fam2.1 aminoacylation ribozyme variant]  biotinyl-Leu-oxazolone  self-aminoacylation            3.91
 4  CCAAACUUCAAGCAAUCGGUG [Fam1B.1 aminoacylation ribozyme variant]  biotinyl-Leu-oxazolone  self-aminoacylation            8.21
 5  AACUUUGCUAAGAGUCGCAAG [Fam3.1 aminoacylation ribozyme variant]  biotinyl-Leu-oxazolone  self-aminoacylation            4.13
 6  CUCCUACAAACAAUCGGUCUG [Fam1A.1 aminoacylation ribozyme variant]  biotinyl-Leu-oxazolone  self-aminoacylation           0.873
 7  CCUCACUUCCAGCAAUCGGUC [Fam1B.1 aminoacylation ribozyme variant]  biotinyl-Leu-oxazolone  self-aminoacylation           0.861
 8  CCACACUUCAAGCAUACGGUC [Fam1B.1 aminoacylation ribozyme variant]  biotinyl-Leu-oxazolone  self-aminoacylation           0.501
 9  CCACAGUUCAAGAAAUCGGUC [Fam1B.1 aminoacylation ribozyme variant]  biotinyl-Leu-oxazolone  self-aminoacylation            1.22
10  CCACACUCCAAGCAAUCGGUC [Fam1B.1 aminoacylation ribozyme variant]  biotinyl-Leu-oxazolone  self-aminoacylation           0.855
11  AACUUUCCUAAUAGUCGCAAG [Fam3.1 aminoacylation ribozyme variant]  biotinyl-Leu-oxazolone  self-aminoacylation            1.58
12  AUUACCCUGGGCGUCGAGUGA [Fam2.1 aminoacylation ribozyme variant]  biotinyl-Leu-oxazolone  self-aminoacylation             1.3
13  AAGUUUGCUAAUAGUCGCGAG [Fam3.1 aminoacylation ribozyme variant]  biotinyl-Leu-oxazolone  self-aminoacylation            1.29
14  CUAAUUCUAACAAUCGGUCUG [Fam1A.1 aminoacylation ribozyme variant]  biotinyl-Leu-oxazolone  self-aminoacylation           0.624
15  AUUCACUUAUGUCAUCGGGUG [Fam2.2 aminoacylation ribozyme variant]  biotinyl-Leu-oxazolone  self-aminoacylation            7.31
16  CCACACUUCUUGCAAUCGGUC [Fam1B.1 aminoacylation ribozyme variant]  biotinyl-Leu-oxazolone  self-aminoacylation            0.72
17  AUUCACUUAGGUCAUCGGCUG [Fam2.2 aminoacylation ribozyme variant]  biotinyl-Leu-oxazolone  self-aminoacylation            1.17
18  AUUACCCUAGUCUUCGAGUGA [Fam2.1 aminoacylation ribozyme variant]  biotinyl-Leu-oxazolone  self-aminoacylation               5
